# System: Lefty1
# PROCEDURE SUMMARY: Lefty1 protein binding to printed compounds – biochemical, small-molecule microarray, 635/667 nm fluorescence, primary screen (AID 1139)
# STUDY CONDITIONS: fluorescence 635/667, higher = more signal
Classify by measured composite z-score: YES if it is equal to or exceeds 0.8, NO if it is smaller.

molecule=O=C(CS)NCCCCCNC(=O)[C@@H]1C[C@@H]2C(=O)NCC(=O)N2[C@@H]1c1ccc(O)cc1 tgt=Lefty1 label=NO
molecule=O=C1[C@H]2C=C(I)[C@H](C[C@@H]2OCCCCO)[C@@]12CO2 tgt=Lefty1 label=NO
molecule=COCCOC(=O)N1C(=O)[C@@]2(c3cc(C#CC4(O)CCCCCC4)ccc31)[C@H](C(=O)Nc1nc3ccccc3s1)[C@H]1C(=O)O[C@H](c3ccccc3)[C@H](c3ccccc3)N1[C@@H]2c1ccc(OCCO)cc1 tgt=Lefty1 label=YES
molecule=COCCOC(=O)N1C(=O)[C@@]2(c3cc(C#CC4(O)CCCCCC4)ccc31)[C@H](C(=O)Nc1nc3ccccc3s1)[C@H]1C(=O)O[C@H](c3ccccc3)[C@H](c3ccccc3)N1[C@@H]2c1ccccc1OCCO tgt=Lefty1 label=NO
molecule=COC(=O)[C@@]1(Cc2ccccc2)[C@H]2c3cc(C(=O)N(C)C)n(CCc4c[nH]c5ccc(O)cc45)c3C[C@H]2CN1C(=O)c1ccccc1 tgt=Lefty1 label=NO
molecule=C#CCN1[C@@H](Cc2ccc(O)cc2)C(=O)O[C@H](Cc2ccccc2)[C@@H]1/C=C/C1CC1 tgt=Lefty1 label=NO
molecule=CC(C)CNC(=O)[C@@]1(Cc2ccccc2I)c2ccccc2C(=O)N(Cc2ccccc2C(F)(F)F)[C@H]1c1ccc(CO)cc1 tgt=Lefty1 label=NO
molecule=COCC(=C=CC[C@H](O)c1ccccc1OCCO)CCO tgt=Lefty1 label=YES
molecule="OCCCC1=CC(C2CC2)N(Cc2cccc(OC(F)(F)F)c2)CC1 (configuration not stated)" tgt=Lefty1 label=NO
molecule=NCCCCCNC(=O)[C@H]1C[C@H]2C(=O)N3CCC[C@H]3C(=O)N2[C@H]1c1ccc(O)cc1 tgt=Lefty1 label=YES
molecule=C=CCNC(=O)[C@H]1[C@@H]2C(=O)O[C@@H](c3ccccc3)[C@@H](c3ccccc3)N2[C@@H](c2ccc(O)cc2)[C@]12C(=O)Nc1ccc(C#CCCO)cc12 tgt=Lefty1 label=NO
molecule=C=CCOC(=O)[C@H]1[C@@H]2C(=O)O[C@@H](c3ccccc3)[C@@H](c3ccccc3)N2[C@@H](c2ccc(OCCOC(=O)[C@@H]3C[C@@H]4C(=O)N5CCC[C@H]5C(=O)N4[C@@H]3c3cccc(OCCO)c3)cc2)[C@]12C(=O)Nc1ccc(I)cc12 tgt=Lefty1 label=YES
molecule=COCCOC(=O)N1C(=O)[C@@]2(c3cc(C#CC4=CCCCC4)ccc31)[C@H](C(N)=O)[C@H]1C(=O)O[C@H](c3ccccc3)[C@H](c3ccccc3)N1[C@@H]2c1ccc(O)cc1 tgt=Lefty1 label=NO
molecule=C=CCN1C(=O)[C@]2(O[C@H](CCO)[C@@H]([Si](C)(C)c3ccc(OC)cc3)[C@@H]2C)c2cc(N(C=O)c3ccccc3)ccc21 tgt=Lefty1 label=NO
molecule=COC(=O)c1c2oc(c1C(=O)OC)C(=O)N[C@@H](C(C)C)Cn1cc(nn1)C1(CCCCC1)NC(=O)N[C@H](CO)CC2 tgt=Lefty1 label=NO
molecule="O=C1C2C=CC(C(O)c3c(F)cccc3Cl)N(Nc3ccccc3F)C2C(=O)N1c1ccccc1 (configuration not stated)" tgt=Lefty1 label=NO
molecule="CC(CO)N1C(=O)[C@@H]2C3C(=O)OCCC/C=C\\[C@H]3OC23C=CCN(CCN2CCOCC2)C(=O)[C@@H]13 (some centres not stated)" tgt=Lefty1 label=NO
molecule=COCCOC(=O)N1C(=O)[C@@]2(c3cc(C#CC4=CCCCC4)ccc31)[C@H](c1ccc(OCCO)cc1)N1[C@H](c3ccccc3)[C@H](c3ccccc3)OC(=O)[C@H]1[C@@H]2C(=O)N1CCc2cc(OC)c(OC)cc2C1 tgt=Lefty1 label=YES
molecule="NC(=O)N1C(=O)C2C(C1=O)C1C=C(CCCO)C2C(C2CC2)N1Cc1cc2c(cc1Br)OCO2 (configuration not stated)" tgt=Lefty1 label=YES
molecule=COCCOC(=O)N1C(=O)[C@@]2(c3ccccc31)[C@H](C(N)=O)[C@H]1C(=O)O[C@H](c3ccccc3)[C@H](c3ccccc3)N1[C@@H]2c1ccc(O)cc1 tgt=Lefty1 label=NO
molecule=COCC(=C=CC[C@H](O)c1cccc(OCCO)c1)C[C@H](O)c1cc(Cl)cc(Cl)c1O tgt=Lefty1 label=YES
molecule=COC(=O)[C@]1(Cc2ccccc2)N=C(c2ccc(OCCCO)cc2)O[C@@H]1c1ccccc1N=[N+]=[N-] tgt=Lefty1 label=YES
molecule=COc1ccc([Si](C)(C)[C@@H]2[C@@H](CC(=O)N3CCC[C@H]3CO)O[C@]3(C(=O)N(Cc4cccc(I)c4)c4ccccc43)[C@H]2C)cc1 tgt=Lefty1 label=YES
molecule=COC(=O)[C@@]1(Cc2ccc(OC)cc2)[C@H]2c3cc(C(=O)N(C)C)n(Cc4ccc(C(F)(F)F)nc4)c3C[C@H]2CN1C(=O)c1ccccc1 tgt=Lefty1 label=NO
